ASSAY_TEXT: thallium influx changes without GIRK channels – cell-based, HEK-293 rmGlu8, no GIRK, thallium flux, counter-screen for GIRK activator project, confirmation (AID 623868);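 further: extra codes mark interference with 3 for fluorescent and 4 for baseline rise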
PARTICULARS: thallium flux fluorescence, at 10 µM, actives lie on both sides, codes: 1 enhancer, -1 blocker, 0 none, thallium stimulus containing EC20 glutamate
About 760 (36%) of roughly 2,100 compounds were called active. These entries were drawn from the full list.
MEASURE_NAME: manual score
In your answer, state the number alone without any accompanying words.

>>> measured_result("Cc1noc(C)c1S(=O)(=O)N1CCC(Cc2ccccc2)CC1")
0
>>> measured_result("COc1ccc(OC)c(Nc2cc(-c3ccccc3)nc(N)n2)c1")
0
>>> measured_result("Cc1c(C(=O)NCc2cccnc2)oc2ccc(S(=O)(=O)N3CCC4(CC3)OCCO4)cc12")
0

Ask: Give me measured manual score, please, for this compound: O=C(NC(=S)N1CCCCC1)C12CC3CC(CC(C3)C1)C2
Reply: 1

====

ASSAY_TEXT: thallium influx changes without GIRK channels – cell-based, HEK-293 rmGlu8, no GIRK, thallium flux, counter-screen for GIRK activator project, confirmation (AID 623868);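 further: extra codes mark interference with 3 for fluorescent and 4 for baseline rise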
PARTICULARS: thallium flux fluorescence, at 10 µM, actives lie on both sides, codes: 1 enhancer, -1 blocker, 0 none, thallium stimulus containing EC20 glutamate
Out of some 2,100 compounds screened, about 760 (36%) were called active. A selection follows.
MEASURE_NAME: manual score
In your answer, state the number alone without any accompanying words.

Here's what some known entries look like.
>>> measured_result("S=C(NCc1cccs1)Nc1cccc(Cl)c1")
0
>>> measured_result("Fc1cccc2sc(Nc3nc4cc5c(cc4s3)OCO5)nc12")
0
>>> measured_result("Clc1ccc2[nH]c3c(NCC4CCCO4)ncnc3c2c1 (stereo unspecified)")
0
>>> measured_result("CN(c1ccccc1)S(=O)(=O)c1ccc(NC(=S)NC(=O)c2ccccc2)cc1")
0
>>> measured_result("CC(Nc1ccc(Br)cn1)c1cc(Cl)ccc1O (stereo unspecified)")
0
>>> measured_result("O=C1CN(C(=O)CSc2nc3cc(Cl)ccc3c(=O)n2Cc2ccccc2)c2ccccc2N1")
1
>>> measured_result("CCOC(=O)c1c(C)[nH]c(=S)c(C#N)c1-c1ccc(Cl)cc1")
0.5
>>> measured_result("COCCCNc1c2c3c(cccc3[nH]c1=O)C(=O)c1ccccc1-2")
3

Ask: Give me measured manual score, please, for this molecule: CSc1nc(N2CCOCC2)c2c(c1C#N)CC(C)(C)OC2
Reply: 0

Ask: Give me measured manual score, please, for this molecule: Cn1c(=O)c2c(nc(-n3ccnc3)n2Cc2ccccc2)n(C)c1=O
Reply: 0

Ask: Give me measured manual score, please, for this molecule: COc1ccc(/C=N/n2c(SC)nnc2-c2ccccc2)c(OC)c1OC
Reply: -1

Ask: Give me measured manual score, please, for this molecule: Fc1cccc(-n2c(-c3ccco3)nc3nc4ccccc4nc32)c1
Reply: 0

Ask: Give me measured manual score, please, for this molecule: CC(C)CNC(=S)NC(=O)c1ccccc1Cl
Reply: 1

Ask: Give me measured manual score, please, for this molecule: O=C(c1ccccc1Oc1ccccc1)N1CCN(c2ccccc2)CC1
Reply: 0

Ask: Give me measured manual score, please, for this molecule: Cc1ccc(-c2cc(-c3n[nH]c(=S)o3)c3ccccc3n2)cc1
Reply: 1

Ask: Give me measured manual score, please, for this molecule: COc1cccc(/C=N/n2c(=S)n(C)c3ccccc32)c1OC
Reply: 0

Ask: Give me measured manual score, please, for this molecule: Cc1cccc(NC(=S)NNC(=O)c2sccc2C)c1
Reply: 1

Ask: Give me measured manual score, please, for this molecule: COc1cccc(CNc2nc3ccccc3n2CCN2CCCCC2)c1OC
Reply: 0

Ask: Give me measured manual score, please, for this molecule: Cc1cc(C(F)(F)F)c2c(=O)[nH]c(=O)n(Cc3ccccc3)c2n1
Reply: 0

Ask: Give me measured manual score, please, for this molecule: O=C1CN(C(=O)CSc2nc3ccccc3c(=O)n2Cc2ccc(F)cc2)c2ccccc2N1
Reply: 1

Ask: Give me measured manual score, please, for this molecule: S=C(Nc1cccc(Cl)c1)Nc1cccc2cnccc12
Reply: 0

====

ASSAY_TEXT: thallium influx changes without GIRK channels – cell-based, HEK-293 rmGlu8, no GIRK, thallium flux, counter-screen for GIRK activator project, confirmation (AID 623868);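 further: extra codes mark interference with 3 for fluorescent and 4 for baseline rise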
PARTICULARS: thallium flux fluorescence, at 10 µM, actives lie on both sides, codes: 1 enhancer, -1 blocker, 0 none, thallium stimulus containing EC20 glutamate
Hit rate of the full screen: of about 2,100 compounds, about 760 (36%) were called active.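 The calls were made as follows: active = thallium-flux fluorescence traces judged by eye to show enhanced or reduced glutamate response, manual score 1 or -1, so both directions (some results past the limit were not filed as active); inactive = the rest, including fluorescent or raised-baseline compounds.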 Only a sample is shown.
Could you please pick one outcome from this set? true for active, false for inactive

>>> group_label("Fc1ccc(/C=N/n2c(-c3cccs3)n[nH]c2=S)cc1")
"true"

Ask: Any idea what this test logged for O=C(CCCc1nc(-c2ccc(Cl)cc2)no1)N1CCOCC1 ?
Reply: false

Ask: Any idea what this test logged for COCCn1c(=S)[nH]c2cc(C(=O)N3CCN(c4ccc(F)cc4)CC3)ccc2c1=O ?
Reply: false

Ask: Any idea what this test logged for O=C(C[n+]1cc(-c2ccccc2)n2c1CCC2)OCc1ccccc1 ?
Reply: false

Ask: Any idea what this test logged for O=C1c2ccsc2SCCN1Cc1c(Cl)cccc1Cl ?
Reply: false

Ask: Any idea what this test logged for CC(C)N(CCn1c(=S)[nH]c2ccccc2c1=O)C(C)C ?
Reply: true

====

ASSAY_TEXT: thallium influx changes without GIRK channels – cell-based, HEK-293 rmGlu8, no GIRK, thallium flux, counter-screen for GIRK activator project, confirmation (AID 623868);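 further: extra codes mark interference with 3 for fluorescent and 4 for baseline rise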
PARTICULARS: thallium flux fluorescence, at 10 µM, actives lie on both sides, codes: 1 enhancer, -1 blocker, 0 none, thallium stimulus containing EC20 glutamate
Screen size: about 2,100 compounds; about 760 (36%) were called active.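 The calls were made as follows: active = thallium-flux fluorescence traces judged by eye to show enhanced or reduced glutamate response, manual score 1 or -1, so both directions (some results past the limit were not filed as active); inactive = the rest, including fluorescent or raised-baseline compounds.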 These entries were drawn from the full list.
Could you please pick one outcome from this set? TRUE (active), FALSE (inactive)

Please review the entries below; each comes with its answer.
>>> group_label("COCCCN1C(=O)C(=O)/C(=C(/O)c2ccc(C)cc2)C1c1ccccc1 (centres undefined)")
"TRUE"
>>> group_label("CCCn1nnnc1NC(=O)c1ccc2ccccc2c1")
"TRUE"
>>> group_label("CCOC(=O)c1cnc(SCC(=O)Nc2nc(C)c(C)s2)nc1N")
"FALSE"

Kindly consider the entry below.
Ask: Any idea what this test logged for COc1ccccc1C(c1nnnn1CCc1ccccc1)N1CCCCCC1 (centres undefined) ?
Reply: FALSE

====

ASSAY_TEXT: thallium influx changes without GIRK channels – cell-based, HEK-293 rmGlu8, no GIRK, thallium flux, counter-screen for GIRK activator project, confirmation (AID 623868);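 further: extra codes mark interference with 3 for fluorescent and 4 for baseline rise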
PARTICULARS: thallium flux fluorescence, at 10 µM, actives lie on both sides, codes: 1 enhancer, -1 blocker, 0 none, thallium stimulus containing EC20 glutamate
The campaign covered roughly 2,100 compounds. About 760 (36%) were called active. The list is a sample of the results.
MEASURE_NAME: manual score
In your answer, state the number alone without any accompanying words.

Here's what some known entries look like.
>>> measured_result("Cc1cccc(NC(=S)N2CCC(C(=O)c3ccc(F)cc3)CC2)c1C")
0
>>> measured_result("CC1CCN(CC(O)COC2CCC(C(C)(C)C)CC2)CC1 (stereo not given)")
0

Ask: Give me measured manual score, please, for this molecule: COc1ccccc1N(C)S(=O)(=O)c1ccc(C(=O)N(CC(N)=O)C(C)C)cc1
Reply: 0

Ask: Give me measured manual score, please, for this molecule: COc1ccccc1NC(=O)c1ccc(S(=O)(=O)N2CCCC2)cc1
Reply: 0

Ask: Give me measured manual score, please, for this molecule: CC1CCCN(S(=O)(=O)c2ccc(C(=O)Nc3nnc(-c4ccccc4Cl)o3)cc2)C1 (stereo not given)
Reply: 1

====

ASSAY_TEXT: thallium influx changes without GIRK channels – cell-based, HEK-293 rmGlu8, no GIRK, thallium flux, counter-screen for GIRK activator project, confirmation (AID 623868);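 further: extra codes mark interference with 3 for fluorescent and 4 for baseline rise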
PARTICULARS: thallium flux fluorescence, at 10 µM, actives lie on both sides, codes: 1 enhancer, -1 blocker, 0 none, thallium stimulus containing EC20 glutamate
Screen size: about 2,100 compounds; about 760 (36%) were called active. Only a sample is shown.
MEASURE_NAME: manual score
In your answer, state the number alone without any accompanying words.

Here's what some known entries look like.
>>> measured_result("CCN(C#N)c1nc(NC(C)C)nc(NC(C)C)n1")
0
>>> measured_result("Cc1ccc(NC(=O)CSc2nnc(CCNC(=O)OC(C)(C)C)o2)c(C)c1")
0

Ask: Give me measured manual score, please, for this compound: Cc1ccccc1Cn1c(-c2cncs2)nc2ccccc21
Reply: 0

Ask: Give me measured manual score, please, for this compound: Cc1cc(N2CCOCC2)n2nc(C)c(-c3ccccc3)c2n1
Reply: 0
